Data origin, for the record: patent US9776972B2

# subject-of-test: human PRMT1 (Homo sapiens)
# Construct: GST-tagged PRMT1; made in house; host or cells: High Five insect cells (baculovirus)
# Sequence (Q99873 with tags, fused parts or gaps): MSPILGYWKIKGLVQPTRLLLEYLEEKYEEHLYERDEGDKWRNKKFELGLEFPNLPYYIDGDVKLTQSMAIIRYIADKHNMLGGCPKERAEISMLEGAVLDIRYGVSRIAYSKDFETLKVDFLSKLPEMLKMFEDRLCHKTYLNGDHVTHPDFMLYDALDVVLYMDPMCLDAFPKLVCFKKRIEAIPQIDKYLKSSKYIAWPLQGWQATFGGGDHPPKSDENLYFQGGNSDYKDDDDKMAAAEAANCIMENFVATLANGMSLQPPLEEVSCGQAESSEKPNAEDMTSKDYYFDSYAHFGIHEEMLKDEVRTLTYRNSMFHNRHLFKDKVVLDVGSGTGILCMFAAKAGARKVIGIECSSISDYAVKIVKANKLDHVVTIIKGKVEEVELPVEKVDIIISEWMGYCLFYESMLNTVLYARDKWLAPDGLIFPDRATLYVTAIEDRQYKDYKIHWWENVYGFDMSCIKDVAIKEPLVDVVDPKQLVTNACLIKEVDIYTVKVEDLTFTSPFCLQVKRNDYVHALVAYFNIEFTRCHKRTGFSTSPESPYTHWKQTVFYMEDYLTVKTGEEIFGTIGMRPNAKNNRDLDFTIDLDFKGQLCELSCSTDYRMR
# assay-method-text: PRMT1 Biochemical Assay (3H-SAM Flashplate, peptide substrate)
# condition-info: single experiment or average of multiple experiments
reported-metric: IC50 (nM)

Take a look at these entries with their results.
# compound, unit, IC50
measured = [
    ("NCCN(CCO)Cc1c[nH]nc1-c1ccc(F)cc1", "nM", 929),
    ("CN(CCN)Cc1c[nH]nc1-c1ccc(C(F)(F)F)c(F)c1", "nM", 8.16),
    ("CN(CCN)Cc1c[nH]nc1-c1ccc(C2CC2)cc1", "nM", 4.84),
]

(1) CN(CCN)Cc1c[nH]nc1-c1cccc(F)c1
(2) CNCCN(C)Cc1n[nH]cc1-c1ccc(Oc2cccc(F)c2)cc1
# return whichever of 1 and 2 has the smaller IC50 Give the label of your selection.
2

(1) COc1ccccc1-c1n[nH]cc1CN(C)CCN
(2) CNCCN(C)Cc1c[nH]nc1-c1cccc(OC)c1
(3) CNCCN(C)Cc1c[nH]nc1-c1ccc(OC)c(F)c1
(4) CN(CCN)Cc1c[nH]nc1-c1ccc(C(F)(F)F)c(Cl)c1
(5) CCN(C)C(=O)c1cccc(-c2n[nH]cc2CN(C)CCN)c1
Rank the items in ascending order with respect to IC50. Please write the labels in the order that was asked for.
4, 3, 2, 1, 5
(4: 5.76 nM, 3: 12.6 nM, 2: 85.6 nM, 1: 244 nM, 5: 2170 nM)

(A) CN(CCN)Cc1c[nH]nc1-c1cc(F)ccc1Cl
(B) CNCCN(C)Cc1n[nH]cc1-c1ccc(Oc2cccc(C(C)C)c2)cc1
Quick check, higher IC50 between A and B ? Give the label of your selection.
A
(A: 336 nM, B: 20.2 nM)

(1) CCC(CC)Oc1ccc(-c2n[nH]cc2CN(C)CCNC)cc1
(2) CC(O)c1ccc(-c2n[nH]cc2CN(C)CCN)cc1 (centres unmarked)
Quick check, higher IC50 between 1 and 2 ? Give the label of your selection.
2
